B1: PBXIP1 (parent)
chain: LQQLRARLQGLEADCVRGPDGVCL

variants of: B1; test: protein stability index of a GFP-peptide fusion (GPS, HEK-293T) (PSI 1-6); higher = more stable; conditions: c terminus: a fixed tail appended;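 also: lentivirally expressed fusions sorted by FACS into six bins by GFP to DsRed ratio, PSI derived from sequencing read proportions per bin multiplied by bin number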
Value Kind: protein stability index
Keep the answer to the number alone.

Would you please look over these solved cases?
Q9K	1.87
A6D	2
C23V	1.74
G21Q	3.34
A13V	2.35

Req: Reported protein stability index for R17M : what is it?
Resp: 1.79

Req: Reported protein stability index for A13S : what is it?
Resp: 2.29

Req: Reported protein stability index for D20R : what is it?
Resp: 2.54

Req: Reported protein stability index for R17F : what is it?
Resp: 2.12

Req: Reported protein stability index for L11I : what is it?
Resp: 1.93

Req: Reported protein stability index for R5P : what is it?
Resp: 2.98

Req: Reported protein stability index for D20W : what is it?
Resp: 1.84

Req: Reported protein stability index for A13W : what is it?
Resp: 1.01

Req: Reported protein stability index for G18Y : what is it?
Resp: 1.93

Req: Reported protein stability index for G21N : what is it?
Resp: 2.69
